Test: yeast display, Sf9 membrane polyspecificity reagent, FACS + sequencing; frameworks hold sequencing errors
quantity: polyreactivity (PSR sort gate)

Check out these entries, answers already filled in.
1. QVQLVESGGGLVQAGGSLRLSCAASGRIFIYYTMGWYRQAPGKERELVASITWSGGRTYYADSVKGRFTISRDNAKNTVYLQMNSLKPEDTAVYYCNAGYSIGLVAYGYWGQGTQVTLSS; low polyreactivity
2. QVQLVESGGGLVQAGGSLRLSCAASGRTFGQYVMGWYREAPGKERELVAAIRSGGSTYYADSVKGRFTISRDNAKNTVYLQMNSLKPEDTAVYYCANETYYGTDNFGQVGGEMDYWGQGTQVTVSS; low polyreactivity
3. QVQLVESGGGLVQAGGSLRLSCAASAGTFWNAMGWYRQAPGKERELVATITSGSSTNYADSVKGRFTISRDNAKNTVYLQMNSLKPEDTAVYYCNARTIPWPYIVSYDYWGQGTQVTVSS; high polyreactivity
4. QVQLVESGGGLVQAGGSLRLSCAASGFTFPVYAMGWYRQAPGKERELVAAITYNGGSTYDADSVKGRFTISRDNAKHTVYFQMNSLKPEDTAVSYCAAEVFLRSLGYWYDYWGQGTQVTVSS; high polyreactivity

Ask | Please indicate polyreactivity (PSR sort gate) recorded for `QVQLVESGGGLVQARGSLRLSCAASGFILTYYAMGRYRQAPGKEMELVATISSGGGSTYYADSVKGRFTISRDNAKNTVYLQMNSLKPEDTAVYFCAASRRMTGIRYINRYEYWGQGTQVTVSS`
Reply | high polyreactivity

====

Assay: yeast display, Sf9 membrane polyspecificity reagent, FACS + sequencing; frameworks hold sequencing errors
quantity: polyreactivity (PSR sort gate)

Check out these entries, answers already filled in.
1) QVQLVESGGGLVQAGGSLRLSCAASGRIFVDNAMGWYRQAPGKERELVAAITRGGSTYADSVKGRFTISRDNAQNTVYLQMISLKPEDTAVYYCAADLWSVPFTVYTFGIFYYWGQGTQVTVSS; low polyreactivity
2) QVQLVESGGGLVQAGGSLRLSCAASGRTFVYNAMGWYRQAPGKERELVAAISSSGGSTRYADSVKGRFTISRDNAMNTVYLQMNSLKPEDTAVYYCATRTKAYLYTYYYWGQGTQVTVSS; high polyreactivity
3) QVQLVESGGGLVQAGGRLRLSCAASGSTVVFNAMGWYRQAPGKERELVAAISKSGGSTYYADSVKGRFTISRDNAKNTVYLQMNSLKPEDTAVYYCNRVSRKILDGDYDYWGQGTQVTVSS; high polyreactivity
4) QVQHVESGGGLVQAGGSLRLSCAASGRIFGWYAMGWYRQAPGKERELVAVISWRGRTYYADSVKGRFTISRDNAKNTVYLQMNSLKPEDTAVYYCNARSRSAYDYWGQGTQVTVSS; high polyreactivity
5) QVQLVESGGGLVQAGGSLRLSCAASGFTFYKNTMGWYRQAPAKARELVAAISSSGSSTYYADSVKGRFTISRDYAKNTVYLQMNSLKPEDTAVYYCAAGRFAYHDDYWGQGTQVTVSS; high polyreactivity
6) QVQLVESGGGLVQAGGSLRLSCAASGRIFSFYAMGWYRQAPGKERELVATISDGGATTYYADSVKGRFTISRDNAKNTVYLQMNSLKPEDTAVYYCAADKRGRPGLPDYDSWGQGTQVTVSS; low polyreactivity

Ask | Please indicate polyreactivity (PSR sort gate) recorded for `QVQLVESGGGLVQAGGSLRLSCAASGSTFPVYAMGWYRQAPGKERELVATISYSGGSTNYADSVKGRFTISRDNAKNTVYLQMNSLIPEDTAVYYCAARKVNRGSGGYDSWGQGTQVTVSS`
Reply | high polyreactivity

Ask | Please indicate polyreactivity (PSR sort gate) recorded for `QVQLVESGGGLVQAGGSLRLSCAASGLTFKYYAMGWYRQAPGKERELVAIISFGGGSTYYADSVKGRFTISRDNAKNTVYLQMNSLKPEDTAVYYCNARLLFKYGYWGQGTQVTVSS`
Reply | high polyreactivity

Ask | Please indicate polyreactivity (PSR sort gate) recorded for `QVQLVESRVGLVQAGGSLRLSCAASGITLYYYALGWYRHAPGKEREFVAAITWRGTTTYYADSVKGPFTISRDNAKNTVYLQMNSLKPEDTALYYCAAEHEQRVADYYYWGQGTQVTVSS`
Reply | low polyreactivity

Ask | Please indicate polyreactivity (PSR sort gate) recorded for `QVQLVESGGGLVQAGGSLRLSCAASGFIVDTYAMGWYRQAPGKERELVAVISSSGGRTYYADSVKGRFTISRDNAKNTVYFQMNSLKPEDTAVYYCAARWYSGYGRFDYWGQGTQVTVSS`
Reply | high polyreactivity

Ask | Please indicate polyreactivity (PSR sort gate) recorded for `QVQLVESGGGLVQAGGSLRLSCAASGFIFGVYAMGWYRQAPGKERELVARITYGGGSTYYADSVKGRFTISRDNAKNTVYLQMNSLKPEDTAVYYCAAASWSYPYYYWGQGTQVTVSS`
Reply | high polyreactivity

Ask | Please indicate polyreactivity (PSR sort gate) recorded for `QVQLVESGGGLVQAGGSLRLSCAASGITFNVYAMGWYRQAPGKERELVAAISYNGGRTYYADSVKGRFTISRDNAKNTVYLPMNSLKPEDTAVYYCAAQWPWGPYDYWGQGTQVTVSS`
Reply | high polyreactivity

====

Assay: yeast display, Sf9 membrane polyspecificity reagent, FACS + sequencing; frameworks hold sequencing errors
quantity: polyreactivity (PSR sort gate)

1) QVQLVESGGRLVQAGGSLRLSCAASGRIFYPYAMGWYRQAPGKERELVASISSSGDRTYYADSVKGRFTISRDNAKNTVYLQMNSLKPEDTAVYYCAARWRYTYYYWGQGTQVTVSS; high polyreactivity
2) QVQLVESGGGLVQAGGSLRLSCAASGSIFRVYAMGWYRQAPGKERELVASISRRGGSTYYADSVKGRFTISRDNAKKTVYLQMNSLKPEETAVYYFAAEFVIGGHGYDYWGQGTQVTVSS; high polyreactivity
3) QVQLVESGGGLVQAGGSLRLSCAASGITFRTNAMGWYRQAPGKERELVAAITTNGGNTYYADSVKGRFTISRDNAKNTVYLQMNSLKPEDTAVYYCNTATYVDSFPDPGDHWGQGTQVTVSS; low polyreactivity
4) QVQLVESGGGLVQAGGSLRLSCAASGRIFPRYAMGWYRQAPGKERELVATISSGGSTYYADSVKGRFTISRDNAKNTVYLQMNSLKPEDTAVYYCAARKRPYTVINGMDYWGQGTQVTVSS; low polyreactivity

====

Experiment: yeast display, Sf9 membrane polyspecificity reagent, FACS + sequencing; frameworks hold sequencing errors
quantity: polyreactivity (PSR sort gate)

1. QVQLVESGGGLVQAGGSLRLSCAASGITFDRYLMGWYRQAPGKERELDAAISWTGDSTYYADSVKGRFTISRDNAKNTVYLQMNSLKPEDPAVYYCAAEDLWYGYNYWGQGTQVTVSS; high polyreactivity
2. QVQLVESGGGLVQAGGSLRLSCAASGGIFYRYAMGWYRQAPGKEREFVASIDVSGGSTHYADSVKGRFTISRDNAKNTVDLQMNSLKPEDTAVHYCAARVYWRSSRYYYWGHGTQVTVSS; high polyreactivity
3. QVQLLESGGGLVQAGGSLRLSCAASGLIMVYYTMGWYRQAPGKERELVASISKSGGRTYYADSVKGRFTISRDNAKNTVYLQMNSLKPEDTAVYYCAAQRVQYSRRDYWGQGTQVTVSS; high polyreactivity

====

Experiment: yeast display, Sf9 membrane polyspecificity reagent, FACS + sequencing; frameworks hold sequencing errors
quantity: polyreactivity (PSR sort gate)

Check out these entries, answers already filled in.
1) QVQLVESGGGLVQAGGSLRLSCAASGRTFGYYGMGWYRQAPGKEREFFAAITRSGGSTYYADSVKGRFTISRDNAKNTVYLQMNSLKPEDTAVYYCAAAHLFTRSRPYDYWGQGTQVTVSS; high polyreactivity
2) QVQLVESGGGLVQAGGSLRLSCAASGITFTSNTMGWYRKAPGKERELVAAISKSGGSTYYADSVKGRFTISRDNAKNTVYLQMNSLKPEDTAVYYCAKDSYYYRRDVTVDYWGQGTQVTVSS; low polyreactivity
3) QVQLVESGGGLVQAGGSLRLSCAASGLTFKRYGMGWYIQAPGKERELVAAINWRGTSTYYADSVKGRFTISRDNAKNTVYLQMNSLKPEDTAVYYCAAVGPFYGPGEYWGQGTQVTVSS; high polyreactivity
4) QVHLVESGGGLVQAGGSHSLSCAASGITFPLYVMGSYRQAPGKERELVAAISASGGSTYADSVKGRFTISRDNAKNTVYLQMNSLKPEDTAVYYCNAAVYVGYEYDYWGLGTQVTVSS; low polyreactivity
5) QVQLVESGGGLVQAGGSLRLSCAASGSTFQLYVMGWYRQAPGKERELVAAIDDGGGSTYYADSVKGRFTISRDNAKNTVYLQMNSLKPEDTAVYYCARRYGYFGYEYDYWGQGTQVTVSS; high polyreactivity

--- query ---
Ask | Please indicate polyreactivity (PSR sort gate) recorded for `QVQLVESGGGLVQAGGSLRLSCAASGRTFDYYVMGWYRQAPGKERELVAAISRRGGSTYYADSVKGRFTISRDNAKNTVYLQMNSLKPEDTAVYYCAAQYYYAREDYWGQGTQVTVSS`
Reply | high polyreactivity
